Where do these numbers come from? They come from the CombiSolv-Exp solvation set (Vermeire and Green 2021).

Test: solvent given as SMILES
Conditions: in CCCCCC

{"columns": ["Smiles code", "solvation free energy, 298 K [kcal/mol]"],
 "data": [
  ["CC(C)C", -2.33],
  ["Cc1ccc(O)c(O)c1", -6.99],
  ["c1ccc2c(c1)ccc1ccccc12", -10],
  ["O=[N+]([O-])c1ccccc1O", -6.48],
  ["CC(C)CCl", -3.87],
  ["CC(C)(C)Br", -3.75],
  ["CCC#N", -3.04]
]}

* * *

compounds and their reported solvation free energy, 298 K
Assay: solvent given as SMILES
Conditions: in Nc1ccccc1

{"columns": ["Smiles code", "solvation free energy, 298 K"],
 "data": [
  ["CC1CCCCC1", "-3.29 kcal/mol"],
  ["CCC1CCCCC1", "-3.93 kcal/mol"],
  ["C=CC=C", "-2.06 kcal/mol"],
  ["CC(C)C", "-1.07 kcal/mol"],
  ["CCC", "-0.79 kcal/mol"],
  ["C=CCCCCCC", "-3.82 kcal/mol"],
  ["C=CCCCC", "-2.68 kcal/mol"],
  ["CCCC", "-1.4 kcal/mol"],
  ["C1COCCO1", "-5.65 kcal/mol"],
  ["C=CC(=C)C", "-2.56 kcal/mol"]
]}

* * *

Experiment: solvent given as SMILES
Conditions: in ClCCCl
Please assign NO whenever solvation free energy, 298 K is at or above -4 kcal/mol, and YES whenever it is below.

{"columns": ["Compound", "Qualitative label"],
 "data": [
  ["O=C1CCCC1", "YES"],
  ["ClC=CCl", "NO"],
  ["CCN(CC)CC", "YES"],
  ["Cc1cccc(C)c1", "YES"],
  ["CCC1CCCCC1", "YES"],
  ["CCCCCl", "YES"],
  ["CCC#N", "YES"],
  ["[HH]", "NO"],
  ["FC(F)(Cl)C(F)(Cl)Cl", "NO"],
  ["ClC(Cl)C(Cl)Cl", "YES"],
  ["ClC(Cl)Cl", "YES"],
  ["ClC(Cl)=C(Cl)Cl", "YES"],
  ["C=CC(=C)C", "NO"],
  ["O=C(c1ccccc1)C(O)c1ccccc1 (stereo unspecified)", "YES"]
]}

* * *

Assay: solvent given as SMILES
Settings: in CCCCCC
Labels assigned by solvation free energy, 298 K range: low class (below -7 kcal/mol), middle class (-7 kcal/mol to below -4 kcal/mol), high class (-4 kcal/mol or more)

{"columns": ["Compound", "Qualitative label"],
 "data": [
  ["CC(Cl)CCl (stereo not given)", "middle class"],
  ["CCN", "high class"],
  ["O", "high class"],
  ["CCCC[N+](=O)[O-]", "middle class"],
  ["Oc1ccccc1Cl", "middle class"],
  ["O=[N+]([O-])c1ccc(O)cc1", "low class"],
  ["Oc1ccccc1Br", "middle class"],
  ["Clc1c(Cl)c(Cl)c(Cl)c(Cl)c1Cl", "low class"],
  ["c1ccc2c(c1)Cc1ccccc1-2", "low class"],
  ["CCC(C)(C)C", "high class"],
  ["CC(C)O", "high class"],
  ["FC(F)(F)C(F)(F)C(F)(F)C(F)(F)C(F)(F)C(F)(F)F", "high class"],
  ["O=C1c2ccccc2-c2ccccc21", "low class"],
  ["CCCCCCCCCCCC", "low class"],
  ["Clc1ccc(Cl)cc1", "middle class"],
  ["Nc1ccccc1", "middle class"],
  ["CC(C)=NO", "high class"],
  ["CCCCCCCCCCO", "low class"],
  ["Nc1ccc2ccccc2c1", "low class"],
  ["CCCCCC(=O)OC", "middle class"],
  ["CCc1ccc(O)cc1", "middle class"],
  ["Cc1ccccc1N", "middle class"],
  ["CCC", "high class"],
  ["CCCCC(=O)OC", "middle class"],
  ["CCCc1ccccc1", "middle class"],
  ["O=[N+]([O-])c1cccc(Cl)c1Cl", "low class"],
  ["CCN(CC)CC", "middle class"],
  ["C(=Cc1ccccc1)c1ccccc1", "low class"],
  ["Nc1ccccc1[N+](=O)[O-]", "low class"],
  ["CCCCCCCCCCC", "low class"],
  ["[HH]", "high class"],
  ["CCCC", "high class"],
  ["CCC1CCCCC1", "middle class"]
]}

* * *

Test: solvent given as SMILES
Conditions: in CCCCCCCCCC
Given measured solvation free energy, 298 K, output true (1) if it is greater than or equal to -5 kcal/mol and false (0) if not.

{"columns": ["Compound", "Qualitative label"],
 "data": [
  ["O=Cc1ccco1", "true (1)"],
  ["CCC(C)(C)C", "true (1)"],
  ["CCCCN", "true (1)"],
  ["CCCc1ccccc1", "false (0)"],
  ["CC(C)C(C)(C)O", "true (1)"],
  ["Oc1ccccc1Br", "false (0)"],
  ["CC(C)(C)CCO", "true (1)"],
  ["CCCC(C)C(C)O (stereo not drawn)", "false (0)"],
  ["Oc1ccccc1Cl", "false (0)"],
  ["CC1CCCC1", "true (1)"],
  ["O", "true (1)"],
  ["C1COCCO1", "true (1)"],
  ["CCC1CCCCC1", "false (0)"],
  ["CCCCC(=O)OC", "true (1)"],
  ["CCC(O)C(C)(C)C (stereo not drawn)", "true (1)"],
  ["Clc1c(Cl)c(Cl)c(Cl)c(Cl)c1Cl", "false (0)"],
  ["CCC(O)(CC)CC", "false (0)"],
  ["ClC=C(Cl)Cl", "true (1)"],
  ["CC(C)C", "true (1)"],
  ["CCC", "true (1)"],
  ["CCCOC(C)=O", "true (1)"],
  ["Cc1ccc(C=O)o1", "false (0)"],
  ["CC1CCCCC1", "true (1)"],
  ["CCCC", "true (1)"],
  ["CCN", "true (1)"],
  ["Cc1ccccc1N", "false (0)"],
  ["O=C1c2ccccc2-c2ccccc21", "false (0)"],
  ["O=[N+]([O-])c1ccccc1O", "false (0)"],
  ["O=[N+]([O-])c1ccc(O)cc1", "false (0)"],
  ["c1ccc2c(c1)ccc1ccccc12", "false (0)"],
  ["CC(C)CCC(C)O (stereo not drawn)", "false (0)"],
  ["CCCCCC(=O)OC", "false (0)"],
  ["c1ccc2c(c1)Cc1ccccc1-2", "false (0)"],
  ["CCCC(C)=O", "true (1)"],
  ["C(=Cc1ccccc1)c1ccccc1", "false (0)"],
  ["[HH]", "true (1)"],
  ["COC(C)(C)C", "true (1)"],
  ["CCCC(C)CO (stereo not drawn)", "true (1)"]
]}

* * *

Item-by-item account of solvation free energy, 298 K
Assay: solvent given as SMILES
Settings: in O

{"columns": ["Compound", "solvation free energy, 298 K"],
 "data": [
  ["Clc1cc(Cl)cc(-c2cc(Cl)ccc2Cl)c1", "-11.4 kJ/mol"],
  ["O=COc1ccccc1", "-16 kJ/mol"],
  ["CCOC(C)(C)C", "-6.74 kJ/mol"],
  ["CN1CCCCC1", "-16.2 kJ/mol"],
  ["CC(C)CCCCOC(=O)c1ccccc1C(=O)OCCCCC(C)C", "-27.4 kJ/mol"],
  ["FC(F)(Cl)C(F)(F)Cl", "9.41 kJ/mol"],
  ["CC(=O)OCCC(C)CCC=C(C)C (stereo not drawn)", "-12.5 kJ/mol"],
  ["BrC1CCCCC1", "-2.38 kJ/mol"]
]}

* * *

Assay: solvent given as SMILES
Conditions: in CCC(C)O
Consider the following molecules and their measured solvation free energy, 298 K readings.

{"columns": ["Molecule", "solvation free energy, 298 K / kcal/mol"],
 "data": [
  ["c1ccc2c(c1)Cc1ccccc1-2", -8.95],
  ["O=C(c1ccccc1)C(O)c1ccccc1 (stereo unspecified)", -14.6],
  ["CC(C)C", -1.79],
  ["Nc1ccc([N+](=O)[O-])cc1", -11.9],
  ["C(=Cc1ccccc1)c1ccccc1", -9.81],
  ["Cc1c(C(=O)O)cc([N+](=O)[O-])cc1[N+](=O)[O-]", -16.1],
  ["[HH]", 1.56],
  ["C=CC=C", -2.07],
  ["O=C1c2ccccc2-c2ccccc21", -10.5],
  ["Cc1ccccn1", -6],
  ["O=C(O)c1ccc(O)cc1", -11.2]
]}

* * *

Test: solvent given as SMILES
Conditions: in CCCC#N
Recorded solvation free energy, 298 K by entry
Measure name: solvation free energy, 298 K (kcal/mol)

{"columns": ["Smiles code", "Display unit", "Obs value"],
 "data": [
  ["C=CCCCC", "kcal/mol", -3.2],
  ["C=CCCCCCC", "kcal/mol", -4.42],
  ["C1COCCO1", "kcal/mol", -5.03],
  ["CCC1CCCCC1", "kcal/mol", -4.46],
  ["CC1CCCCC1", "kcal/mol", -3.63]
]}
